The values you see were collected from patent US20260242478A1.

system: T1, PSMA Fab (biotinylated (site not stated))
T1 construct: Biotinylated PSMA Fab captured on neutravidin coated plates in the phage ELISA; also called Anti-PSMA Fab; 006 PSMA Fab
procedure-text: phage ELISA, biotinylated anti-PSMA Fab on neutravidin plate, anti-M13 HRP detection
Where no end group is shown, it is not given here.
readout-label: Phage binding ELISA signal, Anti-PSMA Fab
One number for each entry.

GERYCVPAWMCAGL (cysteine pairing not given here; also: peptide displayed as fusion to phage pIII, Clonal phage of the peptide-180 optimisation library, tested as crude phage supernatant; not shown: bacteriophage pIII coat protein to which the peptide is fused for display) [Phage-2967] ... 2.26

Switching to the query record.
Fill in Phage binding ELISA signal, Anti-PSMA Fab for record VSPLCVPSWMCVGF (cysteine pairing not given here; also: peptide displayed as fusion to phage pIII, Clonal phage of the peptide-180 optimisation library, tested as crude phage supernatant; not shown: bacteriophage pIII coat protein to which the peptide is fused for display) [Phage-2973]
2.25
